- Tested on: Marburg virus
- Protocol Notes: organism not typed
- Format: cell-based
pEC50: −log10 of the molar value.
Readout Name: pEC50

Data request: pEC50 for `N=C(N)c1ccc2oc(C=Cc3nc4ccc(C(=N)N)cc4[nH]3)cc2c1` ?
Data returned: ≥ 7.30

----------
- Protocol Notes: in vivo
- Study Conditions: mouse, ip, 10 mg/kg
Readout Name: half-life
The reply should read as a number followed by its unit.

Data request: half-life for N=C(N)c1ccc2oc(C=Cc3nc4ccc(C(=N)N)cc4[nH]3)cc2c1 [Compound 723] ?
Data returned: 2 h

----------
- Protocol Notes: Serum concentration of 723 in guinea pigs
- Study Conditions: guinea pig
Readout Name: half-life (h)
Reply numerically in h, unit not repeated.

Data request: half-life for `N=C(N)c1ccc2oc(C=Cc3nc4ccc(C(=N)N)cc4[nH]3)cc2c1` ?
Data returned: 4
